Subject Of Test: T1, Aca1 S42G (Pseudomonas aeruginosa phage JBD30, UniProt L7P845 1-79, S42G)
T1 sequence: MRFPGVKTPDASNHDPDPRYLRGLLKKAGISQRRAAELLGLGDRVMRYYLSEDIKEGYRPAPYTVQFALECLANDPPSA
Method Description: ITC
pKd: −log10 of the molar value.

[
  {
    "Binder": "21-bp IR2 (dsDNA) DNA 1: ATTAGGCACAATGTGCCTAAT DNA 2: ATTAGGCACATTGTGCCTAAT",
    "pKd": 7.23
  }
]
